Percent Effect by entry:
# Species on record: Homo sapiens
# assay_comment: To identify inhibition of the IFN signalling (Jak-Stat) pathway via expression of an eGFP reporter gene under the control of an IFN-stimulated response element (ISRE) containing MxA promoter.
# Assay type: functional
# Set-up: scale not given: direction of the effect not stated beside the values
# conditions_used: 30 µM
Express it in %; write the number only.

Recorded results for 8 compounds are shown here.
1. O=C(c1ncccn1)N1C[C@H]2CCC[C@@]2(COCC2CCOCC2)C1; 25.2
2. Cc1ccc(NCc2cncc3c2CCN(C(=O)C2CC=CC2)C3)nn1; -6.99
3. CC(Cn1ccnc1)NC(=O)C1(c2ccc(F)cc2)CC1 (stereo unspecified); -2.07
4. Cc1cc(C[C@@H]2COC[C@H]2NCc2ccc(Br)s2)on1; 31.8
5. CC(C)c1nc(CN2CCN(C(C)c3nc(C4CC4)no3)CC2)no1 (stereo unspecified); -8.78
6. CC(=O)NCC1CCN(CC2CCOc3ccccc3C2)CC1 (stereo unspecified); -5.31
7. Cc1ccccc1CN1CCC2(COCc3cnc(N(C)C)nc32)C1 (stereo unspecified); 19.6
8. O=C(CSCC1CC1)N1CCCC(c2nccn2Cc2ccncc2)C1 (stereo unspecified); -2.75

For Cc1ccc(C(CNCC2CC2)N2CCOCC2)s1 (stereo unspecified) , what is its reported Percent Effect?
26.7

For CCc1cnc(CN(C)C2CCN(CCS(C)(=O)=O)C2)o1 (stereo unspecified) , what is its reported Percent Effect?
-7.25

For Cc1oc(C)c(C(=O)NCc2cccc(NC(=O)CN(C)C)c2)c1C , what is its reported Percent Effect?
-3.06
